So I've got Ki readings for Histamine H4 receptor (Homo sapiens, UniProt Q9H3N8), take a look.
Respond numerically; units are nM and should not be typed.

GET /values?readout=Ki&item= CNc1nc(N2CCN(C)CC2)nc2cccc(C)c12 692

Also need CCOC(=O)CNc1nc(N2CCN(C)CC2)nc2ccc(Cl)cc12 , thanks. 955

// repeat for CC(C)Nc1nc(N2CCN(C)CC2)nc2ccc(Cl)cc12 and report 759

Also check CN1CCN(c2nc(N)c3cc(Cl)ccc3n2)CC1 105

Also check CN1CCN(c2nc(N)c3ccccc3n2)CC1 2140
